Measured pKd of individual entries
- SYSTEM: K74A
- TEST_METHOD_NOTES: SPR; 37C
Note on units: pKd is unitless, being -log10 of a concentration expressed in mol/L.

Example binders with recorded pKd:
BINDER | pKd
GDF11 (ligand) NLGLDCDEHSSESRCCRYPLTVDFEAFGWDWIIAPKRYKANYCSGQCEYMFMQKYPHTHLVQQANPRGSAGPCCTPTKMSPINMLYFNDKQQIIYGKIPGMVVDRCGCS | 9.37
BMP10 (ligand) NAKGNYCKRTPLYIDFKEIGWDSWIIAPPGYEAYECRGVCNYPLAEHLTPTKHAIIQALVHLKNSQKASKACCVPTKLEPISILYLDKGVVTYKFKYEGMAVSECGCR | 10.48
BMP9 (ligand) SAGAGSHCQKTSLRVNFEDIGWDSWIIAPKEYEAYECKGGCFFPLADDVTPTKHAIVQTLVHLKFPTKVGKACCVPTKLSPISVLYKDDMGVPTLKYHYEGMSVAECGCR | 9.44

Kindly review the next binder as well.
IN: So what does the record say about pKd for Activin A (ligand) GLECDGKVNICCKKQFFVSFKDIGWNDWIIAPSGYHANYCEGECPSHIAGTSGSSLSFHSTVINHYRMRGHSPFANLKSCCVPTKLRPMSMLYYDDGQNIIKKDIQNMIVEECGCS ?
OUT: 10.47
